The measured values listed here are drawn from ChEMBL document CHEMBL3596098.

The listing below reports Ki for compounds tested on Metabotropic glutamate receptor 5 (Rattus norvegicus, UniProt P31424).
Sequence (P31424 whole entry): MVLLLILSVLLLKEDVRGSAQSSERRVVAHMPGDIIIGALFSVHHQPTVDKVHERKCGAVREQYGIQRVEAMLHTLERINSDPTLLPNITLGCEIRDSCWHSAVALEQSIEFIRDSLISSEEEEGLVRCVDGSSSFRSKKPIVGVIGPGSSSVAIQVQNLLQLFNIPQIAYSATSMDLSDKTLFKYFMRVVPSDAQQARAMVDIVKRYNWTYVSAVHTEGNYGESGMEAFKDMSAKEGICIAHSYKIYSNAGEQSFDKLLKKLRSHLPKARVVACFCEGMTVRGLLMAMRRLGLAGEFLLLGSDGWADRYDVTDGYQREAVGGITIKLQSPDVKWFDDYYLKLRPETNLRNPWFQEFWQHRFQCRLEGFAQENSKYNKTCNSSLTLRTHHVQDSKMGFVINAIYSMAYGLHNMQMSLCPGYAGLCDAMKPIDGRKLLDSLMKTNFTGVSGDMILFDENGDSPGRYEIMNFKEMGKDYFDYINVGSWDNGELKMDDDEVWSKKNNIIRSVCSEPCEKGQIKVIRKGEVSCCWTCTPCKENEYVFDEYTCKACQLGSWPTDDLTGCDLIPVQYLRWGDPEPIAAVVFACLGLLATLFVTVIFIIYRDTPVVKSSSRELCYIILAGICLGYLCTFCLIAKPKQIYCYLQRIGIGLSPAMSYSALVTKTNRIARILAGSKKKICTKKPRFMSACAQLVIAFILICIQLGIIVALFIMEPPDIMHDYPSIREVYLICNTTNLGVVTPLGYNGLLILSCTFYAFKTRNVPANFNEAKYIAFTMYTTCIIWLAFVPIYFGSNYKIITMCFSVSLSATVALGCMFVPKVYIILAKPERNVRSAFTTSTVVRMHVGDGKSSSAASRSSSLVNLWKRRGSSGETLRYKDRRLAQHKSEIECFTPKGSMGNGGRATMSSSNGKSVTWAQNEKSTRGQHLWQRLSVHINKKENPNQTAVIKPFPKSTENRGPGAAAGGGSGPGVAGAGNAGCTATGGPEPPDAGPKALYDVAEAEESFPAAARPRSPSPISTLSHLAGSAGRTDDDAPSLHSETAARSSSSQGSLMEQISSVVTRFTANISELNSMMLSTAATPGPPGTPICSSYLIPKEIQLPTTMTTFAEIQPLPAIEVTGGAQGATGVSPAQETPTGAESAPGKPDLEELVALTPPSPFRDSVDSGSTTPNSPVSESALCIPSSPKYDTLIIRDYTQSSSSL

compound | measuredOn | comparator | Ki / nM
Cc1cccc(C#CC=C2CCN(c3ccccc3)CC2)n1 | Metabotropic glutamate receptor 5 (Rattus norvegicus, UniProt P31424) | = | 92
O=C(C#Cc1ccccc1)N1CCN(c2ncccc2[N+](=O)[O-])CC1 | Metabotropic glutamate receptor 5 (Rattus norvegicus, UniProt P31424) | = | 0.6
C=Cc1ccc([N+](=O)[O-])c(N2CCN(C(=O)C#Cc3ccccc3)CC2)n1 | Metabotropic glutamate receptor 5 (Rattus norvegicus, UniProt P31424) | = | 1.3
Cc1cccc(C#CC=C2CCN(c3ncccc3[N+](=O)[O-])CC2)c1 | Metabotropic glutamate receptor 5 (Rattus norvegicus, UniProt P31424) | = | 0.4
Cc1cccc(C#CC=C2CCN(c3ccccc3[N+](=O)[O-])CC2)n1 | Metabotropic glutamate receptor 5 (Rattus norvegicus, UniProt P31424) | = | 0.2
O=[N+]([O-])c1cccnc1N1CCC(=CC#Cc2ccccc2)CC1 | Metabotropic glutamate receptor 5 (Rattus norvegicus, UniProt P31424) | = | 0.6
CN1CC(=O)N=C1NC(=O)Nc1cccc(Cl)c1 [FENOBAM ANHYDROUS] | Metabotropic glutamate receptor 5 (Rattus norvegicus, UniProt P31424) | = | 313
O=C(c1ccc(-c2ccccc2)cc1)N1CCN(c2ncccc2[N+](=O)[O-])CC1 | Metabotropic glutamate receptor 5 (Rattus norvegicus, UniProt P31424) | > | 1000

----------
target: Metabotropic glutamate receptor 5 (Homo sapiens, UniProt P41594)
Sequence (P41594 whole entry): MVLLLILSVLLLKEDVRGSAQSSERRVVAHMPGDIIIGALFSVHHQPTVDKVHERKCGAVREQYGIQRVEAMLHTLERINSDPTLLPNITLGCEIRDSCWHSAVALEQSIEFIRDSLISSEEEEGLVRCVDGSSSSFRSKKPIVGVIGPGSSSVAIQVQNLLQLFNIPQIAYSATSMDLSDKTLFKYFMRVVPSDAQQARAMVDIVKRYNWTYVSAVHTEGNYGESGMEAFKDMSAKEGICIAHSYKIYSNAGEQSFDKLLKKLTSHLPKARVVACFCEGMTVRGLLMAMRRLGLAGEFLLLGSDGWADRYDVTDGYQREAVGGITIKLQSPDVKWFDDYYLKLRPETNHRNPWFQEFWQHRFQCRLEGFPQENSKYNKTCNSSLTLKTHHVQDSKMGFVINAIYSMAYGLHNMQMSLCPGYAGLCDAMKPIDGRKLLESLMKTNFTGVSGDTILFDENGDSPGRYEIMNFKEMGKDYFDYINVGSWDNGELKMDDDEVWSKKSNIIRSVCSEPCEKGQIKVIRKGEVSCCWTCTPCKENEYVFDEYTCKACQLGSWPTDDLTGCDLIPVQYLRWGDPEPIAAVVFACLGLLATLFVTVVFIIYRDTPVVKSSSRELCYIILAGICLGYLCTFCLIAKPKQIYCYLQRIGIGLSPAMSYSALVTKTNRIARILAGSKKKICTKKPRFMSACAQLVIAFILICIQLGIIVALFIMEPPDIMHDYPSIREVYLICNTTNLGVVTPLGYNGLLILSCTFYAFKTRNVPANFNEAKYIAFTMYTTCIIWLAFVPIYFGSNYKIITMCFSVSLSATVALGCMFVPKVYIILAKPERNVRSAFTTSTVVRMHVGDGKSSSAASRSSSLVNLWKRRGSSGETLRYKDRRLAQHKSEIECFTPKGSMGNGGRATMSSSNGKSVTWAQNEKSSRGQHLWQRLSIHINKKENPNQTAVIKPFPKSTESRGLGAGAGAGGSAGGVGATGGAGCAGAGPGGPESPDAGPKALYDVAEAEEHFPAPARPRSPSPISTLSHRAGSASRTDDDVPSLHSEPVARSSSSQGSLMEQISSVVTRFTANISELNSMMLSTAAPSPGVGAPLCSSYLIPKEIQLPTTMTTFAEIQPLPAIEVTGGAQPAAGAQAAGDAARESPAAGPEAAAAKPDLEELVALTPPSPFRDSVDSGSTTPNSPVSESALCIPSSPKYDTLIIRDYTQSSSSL
# if measured Ki < 0.0004 µM: Yes  # else: No

molecule | classAssignment
N#Cc1cc(Cl)cc(C#CC=C2CCN(c3ncccc3[N+](=O)[O-])CC2)c1 | No
Cc1cccc(C#C/C=C2/CCCN(c3nc(C)ccc3[N+](=O)[O-])C2)n1 | No
O=C(c1cnc2ccccc2n1)N1CCN(c2ncccc2[N+](=O)[O-])CC1 | No
Cc1cccc(C#CC=C2CCN(c3ccccc3[N+](=O)[O-])CC2)n1 | Yes
O=C(c1ccc(-c2ccccc2)cc1)N1CCN(c2ncccc2[N+](=O)[O-])CC1 | No
O=[N+]([O-])c1cccnc1N1CCC(=CC#Cc2ccccn2)CC1 | Yes
Cc1cccc(C#CC=C2CCN(c3ncccc3[N+](=O)[O-])CC2)n1 | No
CN1CC(=O)N=C1NC(=O)Nc1cccc(Cl)c1 [FENOBAM ANHYDROUS] | No
O=[N+]([O-])c1cccnc1N1CCN(CC#Cc2ccccc2)CC1 | No
Cc1ccc([N+](=O)[O-])c(N2CCC(=CC#Cc3ccc(C#N)cn3)CC2)n1 | Yes

----------
Below are Ki values measured for UniProt:P23385.
Sequence (P23385 whole entry): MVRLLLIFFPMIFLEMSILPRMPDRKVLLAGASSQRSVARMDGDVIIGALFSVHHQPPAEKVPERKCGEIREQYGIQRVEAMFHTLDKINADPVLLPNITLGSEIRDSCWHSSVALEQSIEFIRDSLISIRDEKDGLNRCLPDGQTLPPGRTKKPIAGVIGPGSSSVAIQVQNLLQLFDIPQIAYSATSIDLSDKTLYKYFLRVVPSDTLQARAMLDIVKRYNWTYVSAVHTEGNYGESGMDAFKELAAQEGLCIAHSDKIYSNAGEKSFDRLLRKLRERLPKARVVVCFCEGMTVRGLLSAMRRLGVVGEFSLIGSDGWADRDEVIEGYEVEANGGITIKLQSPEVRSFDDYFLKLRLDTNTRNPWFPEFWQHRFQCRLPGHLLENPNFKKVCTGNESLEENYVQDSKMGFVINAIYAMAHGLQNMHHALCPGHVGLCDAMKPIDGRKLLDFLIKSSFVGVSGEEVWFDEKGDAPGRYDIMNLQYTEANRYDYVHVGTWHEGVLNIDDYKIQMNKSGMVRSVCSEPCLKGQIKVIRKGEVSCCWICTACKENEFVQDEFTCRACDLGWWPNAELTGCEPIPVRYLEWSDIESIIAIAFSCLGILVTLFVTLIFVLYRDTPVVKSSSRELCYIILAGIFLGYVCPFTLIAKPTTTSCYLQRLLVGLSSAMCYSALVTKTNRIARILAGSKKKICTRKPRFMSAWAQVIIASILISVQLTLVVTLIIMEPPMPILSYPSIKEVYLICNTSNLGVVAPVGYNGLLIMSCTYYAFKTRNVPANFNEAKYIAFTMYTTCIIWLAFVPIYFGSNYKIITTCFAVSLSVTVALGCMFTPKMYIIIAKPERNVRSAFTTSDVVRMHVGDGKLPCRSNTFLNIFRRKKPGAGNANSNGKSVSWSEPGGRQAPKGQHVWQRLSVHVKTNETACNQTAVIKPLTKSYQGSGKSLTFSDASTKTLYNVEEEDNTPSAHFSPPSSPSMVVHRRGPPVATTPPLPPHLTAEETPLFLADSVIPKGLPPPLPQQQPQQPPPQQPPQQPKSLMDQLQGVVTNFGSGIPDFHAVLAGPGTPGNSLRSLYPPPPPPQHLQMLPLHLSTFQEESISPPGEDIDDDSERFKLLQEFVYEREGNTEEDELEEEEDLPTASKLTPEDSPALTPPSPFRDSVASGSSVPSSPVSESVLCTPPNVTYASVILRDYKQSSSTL

sampleSmiles | measuredOn | Ki
Cc1nc(C#Cc2ccc(-c3cccnc3)nc2)cs1 | UniProt:P23385 | > 10000 nM
O=C(C#Cc1ccccc1)N1CCN(c2ncccc2[N+](=O)[O-])CC1 | UniProt:P23385 | 96.8 nM
Cc1cccc(C#CC=C2CCN(c3ncccc3[N+](=O)[O-])CC2)c1 | UniProt:P23385 | 18.6 nM
N#Cc1cc(Cl)cc(C#CC=C2CCN(c3ncccc3[N+](=O)[O-])CC2)c1 | UniProt:P23385 | > 1000 nM
C=Cc1ccc([N+](=O)[O-])c(N2CCN(C(=O)C#Cc3ccccc3)CC2)n1 | UniProt:P23385 | 54.2 nM
Cc1cccc(C#C/C=C2/CCCN(c3nc(C)ccc3[N+](=O)[O-])C2)n1 | UniProt:P23385 | > 1000 nM
Cc1cccc(C#CC=C2CCN(c3ccccc3[N+](=O)[O-])CC2)n1 | UniProt:P23385 | 70.7 nM
